method.description: Potentiometric titration of peptides with CuCl2: Cu(II) binding constants and competitivity index at pH 7.4
Assay type: physicochemical
assay.setup: potentiometry, 25 °C, I=0.1 (KNO3), 1 mM peptide, Cu:peptide 1:1, 1:2, 1:3; error on last digit in parentheses
Where a SMILES comes first, the peptide text is derived from it. [ ]: non-standard residue; d: D form. βAla = NCCC(=O)O
readout.kind: log β CuH-2L

Take a look at these entries with their results.
NCC(=O)NCCC(=O)N[C@@H](Cc1c[nH]cn1)C(=O)NCC(=O)N[C@@H](CO)C(=O)N[C@@H](CO)C(N)=O [Peptide c] (H-G[βAla]HGSS-NH2) :: -4.160(5)
NCCCC[C@H](NC(=O)[C@H](Cc1c[nH]cn1)NC(=O)CCNC(=O)[C@@H](N)Cc1c[nH]c2ccccc12)C(=O)N[C@@H](CO)C(=O)N[C@@H](CO)C(N)=O [g] (H-W[βAla]HKSS-NH2) :: -2.987(9)
NCCCC[C@H](NC(=O)[C@H](Cc1c[nH]cn1)NC(=O)CCNC(=O)[C@@H](N)CCCCN)C(=O)N[C@@H](CO)C(=O)N[C@@H](CO)C(N)=O [d] (H-K[βAla]HKSS-NH2) :: -4.068(6)

Query :: Any idea what its log β CuH-2L is? The molecule is NCCCC[C@H](N)C(=O)NCCC(=O)N[C@@H](Cc1c[nH]cn1)C(=O)N[C@@H](Cc1c[nH]c2ccccc12)C(=O)N[C@@H](CO)C(=O)N[C@@H](CO)C(N)=O [f] (H-K[βAla]HWSS-NH2)
Result :: -3.840(7)

Query :: NC(=O)[C@H](CO)NC(=O)[C@H](CO)NC(=O)[C@H](Cc1c[nH]c2ccccc12)NC(=O)[C@H](Cc1c[nH]cn1)NC(=O)CCNC(=O)[C@@H](N)Cc1c[nH]c2ccccc12 [e] (H-W[βAla]HWSS-NH2) ?
Result :: -3.104(3)

---

method.description: Potentiometric titration of peptides with CuCl2: Cu(II) binding constants and competitivity index at pH 7.4
Format: physicochemical
assay.setup: calculated at pH 7.4 for 1 mM Cu(II), peptide L and virtual competitive ligand Z from potentiometric stability constants; 25 °C, I=0.1 (KNO3)
Where a SMILES comes first, the peptide text is derived from it. [ ]: non-standard residue; d: D form. βAla = NCCC(=O)O
readout.kind: CI7.4 (competitivity index, log K CuZ)

NC(=O)[C@H](CO)NC(=O)[C@H](CO)NC(=O)[C@H](Cc1c[nH]c2ccccc12)NC(=O)[C@H](Cc1c[nH]cn1)NC(=O)CCNC(=O)[C@@H](N)Cc1c[nH]c2ccccc12 [e] (H-W[βAla]HWSS-NH2) :: 11.28
NCCCC[C@H](NC(=O)[C@H](Cc1c[nH]cn1)NC(=O)CCNC(=O)[C@@H](N)CCCCN)C(=O)N[C@@H](CO)C(=O)N[C@@H](CO)C(N)=O [d] (H-K[βAla]HKSS-NH2) :: 10.31
NCC(=O)NCCC(=O)N[C@@H](Cc1c[nH]cn1)C(=O)NCC(=O)N[C@@H](CO)C(=O)N[C@@H](CO)C(N)=O [Peptide c] (H-G[βAla]HGSS-NH2) :: 9.915
NCCCC[C@H](NC(=O)[C@H](Cc1c[nH]cn1)NC(=O)CCNC(=O)[C@@H](N)Cc1c[nH]c2ccccc12)C(=O)N[C@@H](CO)C(=O)N[C@@H](CO)C(N)=O [g] (H-W[βAla]HKSS-NH2) :: 11.29
NCCCC[C@H](N)C(=O)NCCC(=O)N[C@@H](Cc1c[nH]cn1)C(=O)N[C@@H](Cc1c[nH]c2ccccc12)C(=O)N[C@@H](CO)C(=O)N[C@@H](CO)C(N)=O [f] (H-K[βAla]HWSS-NH2) :: 10.52

Ref: paper PMC9299640
